// data source = the supplement of paper PMC10307832

- Tested on: HCC-44
- test.name: relative viability (nuclei count vs DMSO), 5 days (fraction); higher = more cells survive
- condition.summary: first compound 0.8 µM
Assign relative viability to each entry below.
Answers are plain numbers.

Examples with their reported relative viability follow.
Qu. What relative viability value was documented for this molecule, COc1nc(C)cnc1NS(=O)(=O)c1cccnc1-c1ccc(-c2nnco2)cc1 [Zibotentan] + C[C@@H](Oc1cc(-c2cnn(C3CCNCC3)c2)cnc1N)c1c(Cl)ccc(F)c1Cl [Crizotinib] (partner 1 µM) ?
Ans. 0.872

Qu. Entry under review: COc1nc(C)cnc1NS(=O)(=O)c1cccnc1-c1ccc(-c2nnco2)cc1 [Zibotentan] + Nc1nc2[nH]cc(CCc3ccc(C(=O)N[C@@H](CCC(=O)O)C(=O)O)cc3)c2c(=O)[nH]1 [Pemetrexed] (partner 0.2 µM) . Reported relative viability?
Ans. 0.589

Qu. Please look up its relative viability: O=c1cc(-c2cccc3c2Sc2ccccc2S3)oc(N2CCOCC2)c1 + NC(=O)Nc1cc(-c2cccc(F)c2)sc1C(=O)N[C@H]1CCCNC1 [AZD7762] (partner 0.2 µM)
Ans. 0.937

Qu. Using the record for O=c1cc(-c2cccc3c2Sc2ccccc2S3)oc(N2CCOCC2)c1 + C[C@@H](Oc1cc(-c2cnn(C3CCNCC3)c2)cnc1N)c1c(Cl)ccc(F)c1Cl [Crizotinib] (partner 1 µM) , report its relative viability.
Ans. 0.83

Qu. Given the molecule O=c1cc(-c2cccc3c2Sc2ccccc2S3)oc(N2CCOCC2)c1 + Nc1nc2[nH]cc(CCc3ccc(C(=O)N[C@@H](CCC(=O)O)C(=O)O)cc3)c2c(=O)[nH]1 [Pemetrexed] (partner 0.2 µM) , what is its reported relative viability?
Ans. 0.607

Can you give me relative viability for all of these, one by one?
1. O=c1cc(-c2cccc3c2Sc2ccccc2S3)oc(N2CCOCC2)c1 + CC(=O)c1c(C)c2cnc(Nc3ccc(N4CCNCC4)cn3)nc2n(C2CCCC2)c1=O [Palbociclib] (partner 0.5 µM)
2. O=c1cc(-c2cccc3c2Sc2ccccc2S3)oc(N2CCOCC2)c1 + CC(=O)Nc1cccc(-n2c(=O)n(C3CC3)c(=O)c3c(Nc4ccc(I)cc4F)n(C)c(=O)c(C)c32)c1 [Trametinib] (partner 0.02 µM)

Ans.
[0.919, 0.985]

====

Please provide measured relative viability for the entries that follow.
- System: NCI-H322M
- test.name: relative viability (nuclei count vs DMSO), 5 days (fraction); higher = more cells survive
- condition.summary: first compound 0.1 µM
Numbers only.

As a guide, the following entries are already answered.
Qu. Please report the recorded relative viability for CCN(CC)CCCCNc1ncc2cc(-c3cc(OC)cc(OC)c3)c(NC(=O)NC(C)(C)C)nc2n1 + CS(=O)(=O)CCNCc1ccc(-c2ccc3ncnc(Nc4ccc(OCc5cccc(F)c5)c(Cl)c4)c3c2)o1 [Lapatinib] (partner 2 µM) .
Ans. 0.598

Qu. If you can, please state the reported relative viability value of O=c1cc(N2CCOCC2)oc2c(-c3cccc4c3sc3ccccc34)cccc12 + CCNC(=O)c1noc(-c2cc(C(C)C)c(O)cc2O)c1-c1ccc(CN2CCOCC2)cc1 [Luminespib] (partner 0.01 µM) .
Ans. 0.889

Below is a list of compounds. For each, state its recorded relative viability.
1. CCN(CC)CCCCNc1ncc2cc(-c3cc(OC)cc(OC)c3)c(NC(=O)NC(C)(C)C)nc2n1 + C[C@@H](Oc1cc(-c2cnn(C3CCNCC3)c2)cnc1N)c1c(Cl)ccc(F)c1Cl [Crizotinib] (partner 1 µM)
2. CCN(CC)CCCCNc1ncc2cc(-c3cc(OC)cc(OC)c3)c(NC(=O)NC(C)(C)C)nc2n1 + O=C(CCCCCCC(=O)Nc1ccccc1)NO [Vorinostat] (partner 1 µM)
3. CCN(CC)CCCCNc1ncc2cc(-c3cc(OC)cc(OC)c3)c(NC(=O)NC(C)(C)C)nc2n1 + N=C(N)NC(=N)NCCc1ccccc1 [Phenformin] (partner 250 µM)
4. CCN(CC)CCCCNc1ncc2cc(-c3cc(OC)cc(OC)c3)c(NC(=O)NC(C)(C)C)nc2n1 + O=C(c1cc(Cc2n[nH]c(=O)c3ccccc23)ccc1F)N1CCN(C(=O)C2CC2)CC1 [Olaparib] (partner 8 µM)

Ans.
1. 0.928
2. 0.934
3. 0.791
4. 0.745
